compounds and their reported IC50
Target: EGFR wildtype (WT) (Homo sapiens, UniProt P00533)
Sequence (P00533 25-1210): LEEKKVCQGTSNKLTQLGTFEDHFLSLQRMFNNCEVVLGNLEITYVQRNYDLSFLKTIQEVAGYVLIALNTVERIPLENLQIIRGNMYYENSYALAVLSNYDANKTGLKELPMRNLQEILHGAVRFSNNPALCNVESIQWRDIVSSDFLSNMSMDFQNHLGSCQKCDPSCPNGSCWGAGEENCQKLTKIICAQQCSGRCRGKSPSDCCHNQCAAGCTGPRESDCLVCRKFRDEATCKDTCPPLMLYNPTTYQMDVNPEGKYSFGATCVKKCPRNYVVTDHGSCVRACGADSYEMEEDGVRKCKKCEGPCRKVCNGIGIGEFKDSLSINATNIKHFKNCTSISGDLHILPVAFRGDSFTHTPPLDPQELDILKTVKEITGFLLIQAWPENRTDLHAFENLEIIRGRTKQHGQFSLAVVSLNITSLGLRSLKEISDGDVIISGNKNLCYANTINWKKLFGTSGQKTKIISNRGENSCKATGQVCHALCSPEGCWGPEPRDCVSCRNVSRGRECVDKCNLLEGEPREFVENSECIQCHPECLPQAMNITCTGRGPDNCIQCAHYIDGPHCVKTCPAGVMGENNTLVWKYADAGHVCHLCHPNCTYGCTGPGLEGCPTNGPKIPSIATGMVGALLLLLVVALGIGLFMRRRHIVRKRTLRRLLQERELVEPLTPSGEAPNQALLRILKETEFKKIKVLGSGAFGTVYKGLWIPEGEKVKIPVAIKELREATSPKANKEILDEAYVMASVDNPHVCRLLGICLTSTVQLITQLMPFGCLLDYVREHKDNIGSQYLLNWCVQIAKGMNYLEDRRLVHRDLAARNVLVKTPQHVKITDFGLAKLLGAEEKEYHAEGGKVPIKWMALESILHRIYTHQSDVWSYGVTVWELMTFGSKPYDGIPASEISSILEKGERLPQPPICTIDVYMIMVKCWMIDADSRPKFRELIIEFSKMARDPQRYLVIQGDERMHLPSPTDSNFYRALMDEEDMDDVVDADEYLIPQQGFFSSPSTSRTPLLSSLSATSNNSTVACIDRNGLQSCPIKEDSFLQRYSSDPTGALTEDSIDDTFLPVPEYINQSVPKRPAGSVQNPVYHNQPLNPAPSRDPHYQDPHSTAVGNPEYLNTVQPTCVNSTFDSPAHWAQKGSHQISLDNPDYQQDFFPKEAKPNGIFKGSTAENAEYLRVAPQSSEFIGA
Assay: Biochemical EGFR kinase inhibition assay (Lance Ultra TR-FRET), wildtype
Conditions: ATP at Km; read-out: IC50 WT (nM), Km ATP
Please respond with the number in nM and leave the unit unwritten.

compound="CC1(CO)CCN(c2cc(Nc3ccnc(-c4cnn(S(=O)(=O)C5CC5)c4)n3)ncc2C#Cc2cnn(CC3CCOC3)c2)CC1 (centres unmarked)" measured_result=4.7
compound=CC1(CO)CCN(c2cc(Nc3ccnc(-c4cnn(S(=O)(=O)C5CC5)c4)n3)ncc2C#C[Si](C)(C)C)CC1 measured_result=258
compound=CC(C)(O)[C@H]1CC[C@@H](Nc2cc(Nc3ccnc(-c4cnn(S(=O)(=O)C5CC5)c4)n3)ncc2C#Cc2cnn(CC(F)F)c2)CC1 measured_result=115
compound=CC(C)Nc1cc(Nc2ccnc(-c3cnn(S(=O)(=O)C4CC4)c3)n2)ncc1C#CCN1CCCC1 measured_result=437
compound=CN(C)CCC1CCN(c2cc(Nc3ccnc(-c4cnn(S(=O)(=O)C5CC5)c4)n3)ncc2C#Cc2cnn(CC(F)F)c2)CC1 measured_result=1.4
compound=CC1(CO)CCN(c2cc(Nc3ccnc(-c4cnn(S(=O)(=O)C5CC5)c4)n3)ncc2C#Cc2cn(CC(F)F)c3ccncc23)CC1 measured_result=23.9
compound=CC1(CO)CCN(c2cc(Nc3ccnc(-c4cnn(S(=O)(=O)C5CC5)c4)n3)ncc2C#CCCO)CC1 measured_result=4.4
compound=CC(C)(O)CC#Cc1cnc(Nc2ccnc(-c3cnn(S(=O)(=O)C4CC4)c3)n2)cc1N1CCC(C)(CO)CC1 measured_result=12.6

Request: Indicate the recorded IC50 value for this compound: "C[C@]1(O)CC[C@@H](Nc2cc(Nc3ccnc(-c4cnn(S(=O)(=O)C5CC5)c4)n3)ncc2C#Cc2cnn(CC(F)F)c2)CC1"
Response: 146

Request: Return the recorded IC50 value; entry: CC1(CO)CCN(c2cc(Nc3ccnc(-c4cnn(S(=O)(=O)C5CC5)c4)n3)ncc2C#Cc2cnn(CC3COCCO3)c2)CC1 (centres unmarked)
Response: 4.6

* * *

Target: EGFR L858R/C797S (Homo sapiens, UniProt P00533, C797S/L858R)
Sequence (P00533 25-1210 C797S/L858R): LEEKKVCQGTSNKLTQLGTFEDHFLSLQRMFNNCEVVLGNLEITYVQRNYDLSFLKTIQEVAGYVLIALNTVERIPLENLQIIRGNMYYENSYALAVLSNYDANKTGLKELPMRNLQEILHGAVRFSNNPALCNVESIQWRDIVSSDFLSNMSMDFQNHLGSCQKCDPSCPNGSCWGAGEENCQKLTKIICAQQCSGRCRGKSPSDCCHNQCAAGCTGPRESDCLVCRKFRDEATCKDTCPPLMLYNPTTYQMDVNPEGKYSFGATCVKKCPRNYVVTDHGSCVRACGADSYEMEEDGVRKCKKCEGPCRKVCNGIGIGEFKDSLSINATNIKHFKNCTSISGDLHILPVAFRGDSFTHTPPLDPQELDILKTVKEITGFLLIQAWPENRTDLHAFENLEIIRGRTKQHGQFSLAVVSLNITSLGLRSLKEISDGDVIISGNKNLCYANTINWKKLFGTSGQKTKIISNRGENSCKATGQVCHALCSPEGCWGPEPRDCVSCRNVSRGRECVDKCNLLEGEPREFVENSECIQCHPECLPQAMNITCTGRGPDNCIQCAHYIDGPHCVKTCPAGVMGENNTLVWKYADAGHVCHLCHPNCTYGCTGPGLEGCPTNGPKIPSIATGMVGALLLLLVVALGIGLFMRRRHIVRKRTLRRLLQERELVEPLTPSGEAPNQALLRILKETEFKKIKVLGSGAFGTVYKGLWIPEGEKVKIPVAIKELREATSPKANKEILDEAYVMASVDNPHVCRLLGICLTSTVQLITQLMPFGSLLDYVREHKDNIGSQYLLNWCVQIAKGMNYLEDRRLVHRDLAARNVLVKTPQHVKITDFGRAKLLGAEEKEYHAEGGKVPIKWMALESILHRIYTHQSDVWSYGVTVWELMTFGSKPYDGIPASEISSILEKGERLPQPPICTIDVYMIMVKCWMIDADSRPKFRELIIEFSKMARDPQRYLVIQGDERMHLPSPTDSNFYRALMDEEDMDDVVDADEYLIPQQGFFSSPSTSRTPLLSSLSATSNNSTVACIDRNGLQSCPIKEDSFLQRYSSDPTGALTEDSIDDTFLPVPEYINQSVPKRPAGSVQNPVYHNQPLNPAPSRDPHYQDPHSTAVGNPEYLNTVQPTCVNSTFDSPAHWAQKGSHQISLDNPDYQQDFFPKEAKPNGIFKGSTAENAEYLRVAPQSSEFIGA
Test: Biochemical EGFR kinase inhibition assay (Lance Ultra TR-FRET), double mutant L858R/C797S
Conditions: ATP at Km; read-out: IC50 L858R/C797S (nM), Km ATP
Returns: string. Value is Condition met if measured IC50 is below 7 nM, and Condition not met if it is greater than or equal to it.

compound=CN(C)CC1(C)CCN(c2cc(Nc3ccnc(-c4cnn(S(=O)(=O)C5CC5)c4)n3)ncc2C#Cc2cnn(CC(F)F)c2)CC1 assigned_category="Condition met"
compound=Nc1cccc(C#Cc2cnc(Nc3ccnc(-c4cnn(S(=O)(=O)C5CC5)c4)n3)cc2N[C@@H]2CCC[C@H](O)C2)c1 assigned_category="Condition not met"
compound=CC1(O)CCN(c2cc(Nc3ccnc(-c4cnn(S(=O)(=O)C5CC5)c4)n3)ncc2C#Cc2cccnc2)CC1 assigned_category="Condition met"
compound=O=S(=O)(C1CC1)n1cc(-c2nccc(Nc3cc(N[C@H]4CC[C@@H](O)CC4)c(C#Cc4cccc(NCCN5CCOCC5)c4)cn3)n2)cn1 assigned_category="Condition not met"

Request: Does this compound meet the criterion IC50 < 7 nM? "O=S(=O)(C1CC1)n1cc(-c2nccc(Nc3cc(N[C@H]4CC[C@@H](O)CC4)c(C#Cc4ccc(NCCN5CCOCC5)cc4)cn3)n2)cn1"
Response: Condition not met

Request: Threshold test, IC50 < 7 nM: "CC1(CO)CCN(c2cc(Nc3ccnc(-c4cnn(S(=O)(=O)C5CC5)c4)n3)ncc2C#CC2CC2)CC1"
Response: Condition met

Request: Is 7 nM strictly greater than the compound's reported IC50? compound: "CC(C)Nc1cc(Nc2ccnc(-c3cnn(S(=O)(=O)C4CC4)c3)n2)ncc1C#CCN1CCS(=O)(=O)CC1"
Response: Condition not met

Request: Identify whether the compound "CC1(CO)CCN(c2cc(Nc3ccnc(-c4cnn(S(=O)(=O)C5CC5)c4)n3)ncc2C#Cc2ncc(CN3CCOCC3)cn2)CC1" records IC50 below 7 nM.
Response: Condition met

* * *

Molecular target: EGFR L858R/C797S (Homo sapiens, UniProt P00533, C797S/L858R)
Test: Biochemical EGFR kinase inhibition assay (Lance Ultra TR-FRET), double mutant L858R/C797S
Settings: Km ATP; read-out: IC50 L858R/C797S (nM) Km ATP
Protocol: Biochemical EGFR kinase assays were conducted using Lance Ultra time-resolved fluorescence resonance energy transfer (TR-FRET) technology from Perkin-Elmer. […] Each kinase reactions were incubated at room temperature for 1 hour and then stopped by the addition of 4 μL of stop solution (10 mM EDTA). […] After 60 minutes incubation at room temperature the LANCE signal was measured on an EnVision Multilabel Reader (Perkin-Elmer). […]
Class key for IC50 values: class 1 = under 0.8 nM, class 2 = from 0.8 nM up to 3 nM, class 3 = 3 nM and over

Recorded results for 3 compounds are shown here.
compound="CC1(CO)CCN(c2cc(Nc3ccnc(-c4cnn(S(=O)(=O)C5CC5)c4)n3)ncc2C#Cc2cnn(C3CCOCC3)c2)CC1 [Example 95]" system_tested="EGFR L858R/C797S (Homo sapiens, UniProt P00533, C797S/L858R)" assigned_category="class 2"
compound="CN(C)CCCn1cc(C#Cc2cnc(Nc3ccnc(-c4cnn(S(=O)(=O)C5CC5)c4)n3)cc2N2CCC(F)(CO)CC2)cn1 [Example 121]" system_tested="EGFR L858R/C797S (Homo sapiens, UniProt P00533, C797S/L858R)" assigned_category="class 1"
compound="O=S(=O)(C1CC1)n1cc(-c2nccc(Nc3cc(N[C@H]4CC[C@@H](O)CC4)c(C#Cc4cnn(C(F)(F)F)c4)cn3)n2)cn1 [Example 102]" system_tested="EGFR L858R/C797S (Homo sapiens, UniProt P00533, C797S/L858R)" assigned_category="class 3"

Request: Given Cn1cc(C#Cc2cnc(Nc3ccnc(-c4cnn(S(=O)(=O)C5CC5)c4)n3)cc2N[C@H]2CC[C@@H](O)CC2)cn1 [Example 41] , name the class its IC50 places it in.
Response: class 2

Request: Kindly identify the class of Cn1cc(C#Cc2cnc(Nc3ccnc(-c4cnn(S(=O)(=O)C5CC5)c4)n3)cc2N2CCC(NCC(F)(F)F)CC2)cn1 [Example 135] .
Response: class 3

Request: Consider CN(C)CCn1cc(C#Cc2cnc(Nc3ccnc(-c4cnn(S(=O)(=O)C5CC5)c4)n3)cc2N2CCC(C)(CO)CC2)cn1 [Example 116] . To which IC50 class does it belong?
Response: class 1

Request: Category lookup for the compound CN(C)CCCn1cc(C#Cc2cnc(Nc3ccnc(-c4cnn(S(=O)(=O)C5CC5)c4)n3)cc2N2CCCC(CO)C2)cn1 (centres unmarked) [Example 122]
Response: class 1

Request: Categorize the following entry: CC(C)Nc1cc(Nc2ccnc(-c3cnn(S(=O)(=O)C4CC4)c3)n2)ncc1C#Cc1cnn(CC(F)F)c1 [Example 23]
Response: class 3

Request: Please indicate the class for CC1(CO)CCN(c2cc(Nc3ccnc(-c4cnn(S(=O)(=O)C5CC5)c4)n3)ncc2C#Cc2cnn(CC3CCOCC3)c2)CC1 [Example 231] based on its IC50.
Response: class 2

Request: Given CN1CC(n2cc(C#Cc3cnc(Nc4ccnc(-c5cnn(S(=O)(=O)C6CC6)c5)n4)cc3N3CCC(C)(CO)CC3)cn2)C1 [Example 148] , name the class its IC50 places it in.
Response: class 1

Request: Exam item: assign CC1(CO)CCN(c2cc(Nc3ccnc(-c4cnn(S(=O)(=O)C5CC5)c4)n3)ncc2C#Cc2cnn(CC(F)F)c2)CC1 [Example 49] to the correct category.
Response: class 2

Request: Sort into band: Cn1cc(C#Cc2cnc(Nc3ccnc(-c4cnn(S(=O)(=O)C5CC5)c4)n3)cc2N2CCCC(CO)C2)cn1 (centres unmarked) [Example 9]
Response: class 2

Request: Lab log: Cn1cc(C#Cc2cnc(Nc3ccnc(-c4cnn(S(=O)(=O)C5CC5)c4)n3)cc2N[C@H]2CC[C@@H](NCCF)CC2)cn1 [Example 80] — assign IC50 category
Response: class 3

Request: Band of CN1CCC(n2cc(C#Cc3cnc(Nc4ccnc(-c5cnn(S(=O)(=O)C6CC6)c5)n4)cc3N3CCC(C)(CO)CC3)cn2)CC1 [Example 147] ?
Response: class 1

* * *

This listing pairs molecules with measured IC50.
Target: EGFR Del19/T790M/C797S (Homo sapiens, UniProt P00533, C797S/DEL746-750/T790M)
Sequence (P00533 with tags, fused parts or gaps DEL746-750/T790M/C797S): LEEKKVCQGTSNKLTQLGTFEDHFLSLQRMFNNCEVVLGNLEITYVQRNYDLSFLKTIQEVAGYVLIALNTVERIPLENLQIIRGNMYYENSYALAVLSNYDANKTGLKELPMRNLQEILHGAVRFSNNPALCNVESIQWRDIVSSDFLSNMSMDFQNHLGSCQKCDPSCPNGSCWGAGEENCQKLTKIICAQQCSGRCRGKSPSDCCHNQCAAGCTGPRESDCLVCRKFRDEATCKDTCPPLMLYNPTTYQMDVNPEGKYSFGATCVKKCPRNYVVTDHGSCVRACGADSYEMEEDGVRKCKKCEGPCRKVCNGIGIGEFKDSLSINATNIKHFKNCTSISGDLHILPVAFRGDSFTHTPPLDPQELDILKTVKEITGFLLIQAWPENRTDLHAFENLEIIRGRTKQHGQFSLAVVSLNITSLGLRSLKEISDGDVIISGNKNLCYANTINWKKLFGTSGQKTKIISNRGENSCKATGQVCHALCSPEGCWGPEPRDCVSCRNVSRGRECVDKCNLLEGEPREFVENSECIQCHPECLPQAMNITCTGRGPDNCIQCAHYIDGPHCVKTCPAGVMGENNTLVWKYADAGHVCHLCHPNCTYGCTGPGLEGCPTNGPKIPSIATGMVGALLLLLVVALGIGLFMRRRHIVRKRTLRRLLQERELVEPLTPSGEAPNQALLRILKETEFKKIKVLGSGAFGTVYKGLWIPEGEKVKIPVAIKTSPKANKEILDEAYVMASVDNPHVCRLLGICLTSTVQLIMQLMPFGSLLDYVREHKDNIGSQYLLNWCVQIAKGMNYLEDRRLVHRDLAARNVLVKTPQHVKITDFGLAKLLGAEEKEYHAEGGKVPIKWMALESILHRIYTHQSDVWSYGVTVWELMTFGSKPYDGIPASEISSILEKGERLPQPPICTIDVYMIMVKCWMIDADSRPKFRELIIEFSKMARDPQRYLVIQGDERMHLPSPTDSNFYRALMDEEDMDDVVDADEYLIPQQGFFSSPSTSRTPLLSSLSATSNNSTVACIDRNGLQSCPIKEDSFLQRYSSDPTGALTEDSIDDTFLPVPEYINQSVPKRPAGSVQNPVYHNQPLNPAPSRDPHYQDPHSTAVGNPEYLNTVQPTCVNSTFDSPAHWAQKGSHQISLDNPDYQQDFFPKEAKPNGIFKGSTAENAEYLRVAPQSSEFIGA
Experiment: Biochemical EGFR kinase inhibition assay (Lance Ultra TR-FRET), triple mutant del19/T790M/C797S
Details: IC50 Del19/T790M/C797S (nM), 100 μM ATP
The reply should contain only the number, in nM.

Worked cases, answers included:
smiles_str=CC1(CO)CCN(c2cc(Nc3ccnc(-c4cnn(S(=O)(=O)C5CC5)c4)n3)ncc2C#Cc2ccccc2F)CC1 measured_result=19.4
smiles_str=CC1(CO)CCN(c2cc(Nc3ccnc(-c4cnn(S(=O)(=O)C5CC5)c4)n3)ncc2C#CC2(O)CCCC2)CC1 measured_result=0.5

Next molecule, please.
Request: Identify measured IC50 associated with "C[C@]1(O)CC[C@@H](Nc2cc(Nc3ccnc(-c4cnn(S(=O)(=O)C5CC5)c4)n3)ncc2C#Cc2cnn(CC(F)(F)F)c2)CC1"
Response: 11.5

These data points were gathered from patent US11981658B2.
